System: Hs 578T
method.notes: Cell proliferation assay (ATPlite), drug with vs without cobicistat
Assay type: cell-based
assay.conditions: Hs 578T cell line; 120 hours incubation
endpoint.name: Fold change in IC50 (IC50 [Drug + Cobicistat]/IC50 [Drug]) (fold)
Write the answer as a number in fold, unit excluded.

[[record]]
entry_smiles = "CC(=O)O[C@@]12CO[C@@H]1C[C@H](O)[C@@]1(C)C(=O)[C@H](O)C3=C(C)[C@@H](OC(=O)[C@H](O)[C@@H](NC(=O)OC(C)(C)C)c4ccccc4)C[C@@](O)([C@@H](OC(=O)c4ccccc4)[C@H]21)C3(C)C"
system = "Hs 578T"
reported_value = 1.9

[[record]]
entry_smiles = "CC(=O)O[C@H]1C(=O)[C@@]2(C)[C@H]([C@H](OC(=O)c3ccccc3)[C@]3(O)C[C@H](OC(=O)[C@H](O)[C@@H](NC(=O)c4ccccc4)c4ccccc4)C(C)=C1C3(C)C)[C@]1(OC(C)=O)CO[C@@H]1C[C@@H]2O"
system = "Hs 578T"
reported_value = 2.6

[[record]]
entry_smiles = "Cc1nc(Nc2ncc(C(=O)Nc3c(C)cccc3Cl)s2)cc(N2CCN(CCO)CC2)n1"
system = "Hs 578T"
reported_value = 2.5

[[record]]
entry_smiles = "COc1cccc2c1C(=O)c1c(O)c3c(c(O)c1C2=O)C[C@@](O)(C(=O)CO)C[C@@H]3O[C@H]1C[C@H](N)[C@H](O)[C@H](C)O1"
system = "Hs 578T"
reported_value = 1.7

[[record]]
entry_smiles = "CC[C@]1(O)C[C@@H]2CN(CCc3c([nH]c4ccccc34)[C@@](C(=O)OC)(c3cc4c(cc3OC)N(C)[C@H]3[C@@](O)(C(=O)OC)[C@H](OC(C)=O)[C@]5(CC)C=CCN6CC[C@]43[C@@H]65)C2)C1"
system = "Hs 578T"
reported_value = 3.7


Any idea what Fold change in IC50 (IC50 [Drug + Cobicistat]/IC50 [Drug]) was measured for `CC[C@]1(O)C[C@H]2CN(CCc3c([nH]c4ccccc34)[C@@](C(=O)OC)(c3cc4c(cc3OC)N(C=O)[C@H]3[C@@](O)(C(=O)OC)[C@H](OC(C)=O)[C@]5(CC)C=CCN6CC[C@]43[C@@H]65)C2)C1` ?
2.8

* * *

Test system: A388
method.notes: Cell proliferation assay (ATPlite), drug with vs without cobicistat
Type: cell-based
assay.conditions: A388 cell line; 120 hours incubation
// values below are reported Fold change in IC50 (IC50 [Drug + Cobicistat]/IC50 [Drug])
Give the quantity in fold, number only.

Solved entries (count: 4):
[[record]]
entry_smiles = "CC[C@]1(O)C[C@@H]2CN(CCc3c([nH]c4ccccc34)[C@@](C(=O)OC)(c3cc4c(cc3OC)N(C)[C@H]3[C@@](O)(C(=O)OC)[C@H](OC(C)=O)[C@]5(CC)C=CCN6CC[C@]43[C@@H]65)C2)C1"
reported_value = 4.7

[[record]]
entry_smiles = "COc1cccc2c1C(=O)c1c(O)c3c(c(O)c1C2=O)C[C@@](O)(C(=O)CO)C[C@@H]3O[C@H]1C[C@H](N)[C@H](O)[C@H](C)O1"
reported_value = 1.7

[[record]]
entry_smiles = "CC(=O)O[C@@]12CO[C@@H]1C[C@H](O)[C@@]1(C)C(=O)[C@H](O)C3=C(C)[C@@H](OC(=O)[C@H](O)[C@@H](NC(=O)OC(C)(C)C)c4ccccc4)C[C@@](O)([C@@H](OC(=O)c4ccccc4)[C@H]21)C3(C)C"
reported_value = 6.0

[[record]]
entry_smiles = "Cc1nc(Nc2ncc(C(=O)Nc3c(C)cccc3Cl)s2)cc(N2CCN(CCO)CC2)n1"
reported_value = 1.9


Given the entry `CC(=O)O[C@H]1C(=O)[C@@]2(C)[C@H]([C@H](OC(=O)c3ccccc3)[C@]3(O)C[C@H](OC(=O)[C@H](O)[C@@H](NC(=O)c4ccccc4)c4ccccc4)C(C)=C1C3(C)C)[C@]1(OC(C)=O)CO[C@@H]1C[C@@H]2O` , report its measured Fold change in IC50 (IC50 [Drug + Cobicistat]/IC50 [Drug]).
2.7

Entry to check: `CC[C@]1(O)C[C@H]2CN(CCc3c([nH]c4ccccc34)[C@@](C(=O)OC)(c3cc4c(cc3OC)N(C=O)[C@H]3[C@@](O)(C(=O)OC)[C@H](OC(C)=O)[C@]5(CC)C=CCN6CC[C@]43[C@@H]65)C2)C1`
3.7
